tested on: Leishmania major; experiment: Antileishmanial activity against promastigote stage of Leishmania major MHOM/IL/81/FEBNI infected Swiss albino mouse assessed as decrease in swelling and redness of inoculated footpad at 20 umol administered 21 days post infection measured after 5 weeks; format: functional, organism-based
Activity calls are given as the source filed them. No cut-off for these calls is given here.

- Compound: "CC1=C(C(=O)NNC(=O)c2ccccc2O)C(c2cccc([N+](=O)[O-])c2)NC(=O)N1 (centres undefined)"
  Activity: "Active"
- Compound: "CC1=C(C(=O)N(CCCl)CCCl)C(c2cccc([N+](=O)[O-])c2)NC(=S)N1 (centres undefined)"
  Activity: "Active"
- Compound: "CC1=C(C(=O)NNC(=O)c2ccccc2O)C(c2cccc([N+](=O)[O-])c2)NC(=S)N1 (centres undefined)"
  Activity: "Active"
- Compound: "C/C=C/C(=O)NNC(=O)C1=C(C)NC(=S)NC1c1cccc([N+](=O)[O-])c1 (centres undefined)"
  Activity: "Active"

Where these numbers come from: ChEMBL document CHEMBL3045356
